Data origin, for the record: patent US5177069A

- Test system: isolated gallbladder
- method.description: CCK-antagonism in isolated gallbladder (contraction induced by CCK-8)
- Assay type: cell-based, male Hartley guinea-pig
- condition.context: Cavia porcellus; guinea-pig gallbladder strips, Krebs solution 37° C.; contraction induced by 10^-8 M CCK-8
pIC50: −log10 of the molar value.
quantity: pIC50

molecule="CCCCCN(CC(=O)OCC)C(=O)C(CCC(=O)O)CS(=O)(=O)c1ccc2ccccc2c1 (centres unmarked)" quantity=pIC50 measurement=5.68
molecule="CCCCCN(CCC(=O)OCC)C(=O)C(CCC(=O)O)CS(=O)(=O)c1ccc2ccccc2c1 (centres unmarked)" quantity=pIC50 measurement=5.54
molecule="CCCCCN(CCCOC)C(=O)C(CCC(=O)O)CS(=O)(=O)c1ccc2ccccc2c1 (single isomer, unassigned; (-)) [compound 22]" quantity=pIC50 measurement=5.55
molecule="CCCCCN(CCCOC)C(=O)C(CCC(=O)O)CS(=O)(=O)c1ccc2ccccc2c1 (centres unmarked) [Compound No. 18]" quantity=pIC50 measurement=5.17
molecule="CCCCCN(CCCCC)C(=O)C(CCC(=O)O)CS(=O)(=O)c1ccc2ccccc2c1 (centres unmarked)" quantity=pIC50 measurement=5.59
